- Tested on: murine neural precursor cells (neurosphere cultures)
- ASSAY_NAME: HTS of LOPAC library against secondary neurosphere cultures, MTT proliferation assay at 3 μM, day 7 (z score, P value)
- Type: cell-based, mouse
- EXPERIMENTAL_SETUP: LOPAC primary screen, neurosphere MTT proliferation, 3 μM, day 7
Structures can show the parent of a compound that is named as a salt.
Label key: Criterion met means Z score under -0.4; Criterion not met means Z score of -0.4 or more.

Answered examples (6):
[
  {
    "COMPOUND": "Cc1nccc2c1[nH]c1ccccc12",
    "LABEL_CLASS": "Criterion met"
  },
  {
    "COMPOUND": "Oc1ccc2c3c1O[C@H]1c4[nH]c5ccccc5c4C[C@@]4(O)[C@@H](C2)N(CC2CC2)CC[C@]314 [Naltrindole hydrochloride]",
    "LABEL_CLASS": "Criterion not met"
  },
  {
    "COMPOUND": "Cl.c1ccc([C@H]2CN3CCSC3=N2)cc1 [(−)-Teramisole hydrochloride]",
    "LABEL_CLASS": "Criterion met"
  },
  {
    "COMPOUND": "COC1(C2=NCCN2)COc2ccccc2O1.Cl (centres unmarked) [RX 821002 hydrochloride]",
    "LABEL_CLASS": "Criterion not met"
  },
  {
    "COMPOUND": "CNCCCC12CCC(c3ccccc31)c1ccccc12 [Maprotiline hydrochloride]",
    "LABEL_CLASS": "Criterion not met"
  },
  {
    "COMPOUND": "Cc1ccc(=O)n(-c2ccccc2)c1",
    "LABEL_CLASS": "Criterion met"
  }
]

q: Report whether reported Z score is lower than -0.4 (strictly) for C/C=C(/C)C(=O)O[C@H]1C(C)=C2[C@H]([C@@H]1OC(=O)CCCCCCC)[C@@](C)(OC(C)=O)C[C@H](OC(=O)CCC)[C@@]1(O)[C@H]2OC(=O)[C@@]1(C)O
a: Criterion met

q: Moving on to the next compound: CC(=O)O.O=C(NCC1CCCCN1)c1cc(OCC(F)(F)F)ccc1OCC(F)(F)F (centres unmarked) [Flecainide acelate]
a: Criterion met
